test system: HT-29; experiment: NCI tumour cell line growth inhibition, 48 h
Activity calls are given as the source filed them. Rule as the data show it: active = GI50 up to about 1.1 µM and inactive = higher.
quantityKind: GI50

[
  {
    "compound": "O=C1/C(=N/c2ccc(Nc3ccccc3)cc2)Oc2ccccc21",
    "assayResult": "2.2 µM (inactive)"
  },
  {
    "compound": "COC1/C=C\\C=C(/C)C(=O)NC2=CC(=O)C=C(C2=O)C(OC)C(C)CC(OC)C(OC)C(C)/C=C(/C)C1OC(N)=O (configuration not stated)",
    "assayResult": "0.608 µM (active)"
  },
  {
    "compound": "O=C(O)c1ccc(C(c2c(O)oc3ccccc3c2=O)c2c(O)oc3ccccc3c2=O)cc1",
    "assayResult": "> 100 µM (inactive)"
  },
  {
    "compound": "Cc1cn2c(=O)c3ccccc3nc2s1",
    "assayResult": "> 100 µM (inactive)"
  },
  {
    "compound": "CO/C=C(/C(=O)OC)[C@@H]1C[C@@H]1c1ccc2ccccc2c1",
    "assayResult": "19.1 µM (inactive)"
  },
  {
    "compound": "O=C(O)CNC(=O)c1ccc2cc(C(=O)N3CC(CCl)c4ccc([N+](=O)[O-])cc43)[nH]c2c1 (configuration not stated)",
    "assayResult": "> 100 µM (inactive)"
  },
  {
    "compound": "C[C@]12CC[C@H]3[C@@H](CCC4=C[C@@H](OC5OCC(OC6OC(CO)C(O)C(O)C6O)C(O)C5O)CC[C@@]43C=O)[C@@]1(O)CCC2C1=CC(=O)OC1 (some centres not stated)",
    "assayResult": "0.832 µM (active)"
  },
  {
    "compound": "OCC12C=CC(C1)c1ccccc12 (configuration not stated)",
    "assayResult": "> 100 µM (inactive)"
  },
  {
    "compound": "O=C(CC(=O)C1=CNc2ccccc2S1)C(=O)Nc1ccc(Cl)cc1",
    "assayResult": "> 50 µM (inactive)"
  },
  {
    "compound": "O=[N+]([O-])/C=C/c1cn(CCCCCn2cc(/C=C/[N+](=O)[O-])c3ccccc32)c2ccccc12",
    "assayResult": "1.56 µM (inactive)"
  },
  {
    "compound": "NC(=O)C(=O)c1ncn(Cc2ccccc2)c1N",
    "assayResult": "> 100 µM (inactive)"
  },
  {
    "compound": "N#CSC#Cc1ccc(C#CSC#N)cc1",
    "assayResult": "20.1 µM (inactive)"
  },
  {
    "compound": "CCOC(=O)/C=C/C1OC(C)(C)OC1/C=C/C(=O)OCC (configuration not stated)",
    "assayResult": "18.2 µM (inactive)"
  },
  {
    "compound": "Cc1ccc(Oc2ccc(C)cc2N)cc1",
    "assayResult": "52.5 µM (inactive)"
  },
  {
    "compound": "CC1(C)CCCOc2cccc(c2)OCCCC(C)(C)C1=O",
    "assayResult": "19.8 µM (inactive)"
  },
  {
    "compound": "C/C(=C\\CNc1ncnc2[nH]c(Cl)nc12)CO",
    "assayResult": "> 100 µM (inactive)"
  },
  {
    "compound": "c1ccc([P+](c2ccccc2)(c2ccccc2)C2Sc3ccccc3S2)cc1",
    "assayResult": "23 µM (inactive)"
  },
  {
    "compound": "O=C1Nc2ccccc2SC1=C(C(=O)c1ccccc1)C(=O)c1ccccc1",
    "assayResult": "32.4 µM (inactive)"
  },
  {
    "compound": "S=C1Cc2cc3ccccc3nc2-c2ccccc2N1",
    "assayResult": "> 47.2 µM (inactive)"
  },
  {
    "compound": "Nc1nc(N)c(/N=N/c2ccc(C(=O)O)c(O)c2)c(N)n1",
    "assayResult": "> 100 µM (inactive)"
  },
  {
    "compound": "CCN1CCCCCCCCCC(=N/O)/C(=N\\O)C1",
    "assayResult": "> 100 µM (inactive)"
  },
  {
    "compound": "CC1(C)Oc2ccc3c(=O)cc(-c4ccc(F)cc4)oc3c2C1C(=O)O (configuration not stated)",
    "assayResult": "> 100 µM (inactive)"
  }
]
